B1: Caulobacter ParB omega fusion; a variant is named by its letters at X, in order, B8GW30 (parent)
chain: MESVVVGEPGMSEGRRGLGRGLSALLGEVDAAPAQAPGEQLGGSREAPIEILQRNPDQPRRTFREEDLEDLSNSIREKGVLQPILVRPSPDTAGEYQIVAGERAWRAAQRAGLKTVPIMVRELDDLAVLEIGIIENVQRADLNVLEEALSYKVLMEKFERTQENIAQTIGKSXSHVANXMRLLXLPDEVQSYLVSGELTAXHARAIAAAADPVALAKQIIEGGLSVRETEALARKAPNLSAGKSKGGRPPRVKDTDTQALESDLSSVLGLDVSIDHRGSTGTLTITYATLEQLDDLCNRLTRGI

Variants of: B1
Test: one-hybrid fitness for binding parS DNA (scaled: cognate 1, non-cognate 0); higher = stronger binding
Details: with parS DNA site
The full ranking holds about 81,000 sequences; the median of “one-hybrid fitness for binding parS DNA” is about -0.17, and the highest 2% start at about 0.51. Shown is part of a subset that was picked to be rich in the highest values.
A collection of variants and their measured one-hybrid fitness for binding parS DNA

Worked examples, 4 variants total:
CFAA = ≤ 0.2
DLRC = ≤ 0.2
RTFC = 0.986
RAAF = 0.242

q: What does the record list as one-hybrid fitness for binding parS DNA for RAFH ?
a: 0.204

// provenance: a collection of fitness landscapes (doi:10.1016/j.celrep.2020.107928)
